Numbers sourced from PubChem BioAssay.

Please go through the items and note down their composite z-score.
Target system: E3 ubiquitin-protein ligase XIAP (Homo sapiens) (UniProt P98170)
Sequence (P98170 whole entry, looked up): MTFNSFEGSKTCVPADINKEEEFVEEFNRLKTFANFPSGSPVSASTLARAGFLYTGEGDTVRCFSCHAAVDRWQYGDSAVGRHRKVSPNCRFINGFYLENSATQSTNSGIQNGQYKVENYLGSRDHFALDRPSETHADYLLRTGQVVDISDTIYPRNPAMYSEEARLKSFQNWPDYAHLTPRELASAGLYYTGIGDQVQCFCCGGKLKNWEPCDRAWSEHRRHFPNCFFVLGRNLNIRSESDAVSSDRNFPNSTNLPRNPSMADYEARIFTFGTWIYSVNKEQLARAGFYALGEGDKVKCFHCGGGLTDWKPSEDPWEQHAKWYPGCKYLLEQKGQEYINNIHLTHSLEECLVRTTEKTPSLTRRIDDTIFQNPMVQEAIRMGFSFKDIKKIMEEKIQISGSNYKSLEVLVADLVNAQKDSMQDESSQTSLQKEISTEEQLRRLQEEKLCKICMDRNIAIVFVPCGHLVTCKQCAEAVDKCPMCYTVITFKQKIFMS
Assay notes: XIAP binders, primary screen, biophysical, small-molecule microarray, fluorescence 635 nm (AID 1181);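 also: score merges 667 nm emission and signal to noise over triplicate slides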
Assay context: small-molecule microarray binding, higher = more signal
Numbers only.

For orientation, consider the following solved cases.
Compound: CC(C)(C)N1CC=CC23O[C@@H]4C=CCOC(=O)[C@@H]4[C@H]2C(=O)N(CCCO)[C@@H]3C1=O (some centres not stated)
composite z-score: 0.55
//
Compound: Cc1ccc(F)cc1S(=O)(=O)N[C@@H]1CCN(Cc2ccc(OC(C)C)cc2)C1
composite z-score: -0.0794
//
Compound: Cc1ccc(S[C@]2(C(=O)NC(C)C)CC(=O)N(Cc3ccccc3C(F)(F)F)[C@@H]2c2ccc(CO)cc2I)cc1
composite z-score: -0.126
//
Compound: CC(C)(C)OC(=O)CC[C@@]1(C(=O)O)N=C(c2ccc(OCCCO)cc2)O[C@@H]1c1ccccc1
composite z-score: -0.0918
//
Compound: CO[C@H]1O[C@H](CO)[C@@H](OC(=O)Nc2ccccc2-c2ccccc2)[C@H](OC(=O)Nc2ccc3c(c2)OCO3)[C@@H]1OC(=O)Nc1ccc2c(c1)OCO2
composite z-score: 0.227

For each entry beneath this line, provide reported composite z-score.
1. NCCCCCNC(=O)[C@@H]1C[C@@H]2C(=O)N[C@@H](CCCCN)C(=O)N2[C@@H]1c1cccc(OCCO)c1
2. CCOC(=O)C[C@H]1[C@H](OC(=O)c2ccc(-c3ccccc3)cc2)[C@@H](NC(=O)C2CCCCC2)c2cc(OCCCO)ccc2N1C(=O)c1ccccc1

1. -0.399
2. 0.0623

----------
System: XIP peptide (Xip251-270) binding
Assay notes: small-molecule binders of XIP peptide, primary screen, biochemical, small-molecule microarray, fluorescence 635/667 nm, 0.1 µg/mL protein (AID 1182)
Assay context: fluorescent protein binding, 635 nm, higher = more signal, called active from +8 up or from −8 down
Please enter 1.0 where composite z-score is greater than or equal to 0.03, and 0.0 where it is lower.

Compound: CC(C)C[C@@H]1NC(=O)[C@H]2C[C@@H](C(=O)NCCCCCC[N+](C)(C)C)[C@@H](c3cccc(OCCO)c3)N2C1=O
Assigned category: 1.0
//
Compound: O=C1OCC=C[C@H]2OC34C=CCN(c5ccc(Cl)cc5)C(=O)[C@H]3N(CCCCCO)C(=O)[C@@H]4[C@@H]12 (stereo not given in full)
Assigned category: 0.0
//
Compound: COCCOC(=O)N1C(=O)[C@@]2(c3cc(C#CC4(O)CCCCCC4)ccc31)[C@H](C(N)=O)[C@H]1C(=O)O[C@H](c3ccccc3)[C@H](c3ccccc3)N1[C@@H]2c1ccccc1OCCO
Assigned category: 0.0

I'd appreciate it if you could say whether C=CC[C@]12N=C(c3ccc(OCCCO)cc3)O[C@H]1c1ccccc1N(C)C2=O has composite z-score at least equal to 0.03.
1.0

----------
Target system: Focal adhesion kinase 1 (Homo sapiens)
Assay notes: small-molecule microarray binders of FAK, primary screen, biochemical, 635/667 nm fluorescence, BSA, DTT (AID 1130);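 also: composite of spot emission at 667 nm and signal to noise over triplicate slides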
Assay context: PTK2 binding, 635 nm fluorescence, higher = more signal
Attribute measured: composite z-score
Numbers only.

Mol: C=CCOC(=O)[C@@H]1[C@H]2C(=O)O[C@H](c3ccccc3)[C@H](c3ccccc3)N2[C@H](c2ccc(OCCOC(=O)[C@H]3C[C@H]4C(=O)N[C@@H](CCCC[N+](C)(C)C)C(=O)N4[C@H]3c3ccc(O)cc3)cc2)[C@@]12C(=O)Nc1ccc(I)cc12
composite z-score: 0.831

Mol: COC(=O)C(CC#Cc1ccc2c(c1)[C@]1(C(=O)N2)[C@H](C(=O)O)[C@H]2C(=O)O[C@H](c3ccccc3)[C@H](c3ccccc3)N2[C@@H]1c1ccccc1OCCO)C(=O)OC
composite z-score: 0.712

Mol: CN(C)CCCNC(=O)[C@@]1(c2ccc([N+](=O)[O-])cc2)CC(=O)N(CC23CC4CC(CC(C4)C2)C3)[C@@H]1c1ccc(CO)cc1
composite z-score: 0.703

Mol: COCCOC(=O)N1C(=O)[C@@]2(c3cc(C#CC4(O)CCCCCC4)ccc31)[C@H](C(N)=O)[C@H]1C(=O)O[C@H](c3ccccc3)[C@H](c3ccccc3)N1[C@@H]2c1ccccc1OCCO
composite z-score: 0.988

Let us examine a further case.
I would be grateful if you could share the reported composite z-score for COc1ccc([Si](C)(C)[C@H]2[C@H](CCn3cc(CCO)nn3)O[C@@]3(C(=O)N(Cc4ccc(N5C(=O)c6cccc7cccc5c67)cc4)c4ccccc43)[C@@H]2C)cc1 .
0.379

----------
Test system: PRMT1 (protein arginine N-methyltransferase 1)
Assay notes: PRMT1 binders on small-molecule microarrays, primary screen, biochemical, small-molecule microarray, 635 nm fluorescence (AID 1088);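 also: binding of Prmt1 protein to compounds spotted on small-molecule microarray slides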
Assay context: small-molecule microarray binding, higher = more signal
Please go through the items and note down their composite z-score.
Answers are plain numbers.

For orientation, consider the following solved cases.
Compound: Cc1ccc(S[C@]2(C(=O)NC(C)C)CC(=O)N(C3Cc4ccccc4C3)[C@@H]2c2ccc(CO)cc2I)cc1
Result value: 0.871
//
Compound: O=C1C[C@@](C(=O)NCC(F)(F)F)(c2ccc([N+](=O)[O-])cc2)[C@@H](c2ccc(CO)cc2)N1C1CCCCC1
Result value: 1.56
//
Compound: CCOC(=O)C[C@H]1[C@H](OC(=O)c2ccc(-c3ccccc3)cc2)[C@@H](NC(=O)c2ccc3ccccc3n2)c2cc(OCCCO)ccc2N1C(=O)c1ccccc1
Result value: 1.52
//
Compound: COC(=O)[C@@]1(Cc2ccc(OC)cc2)[C@H]2c3cc(C(=O)N(C)C)n(Cc4nc5ccccc5[nH]4)c3C[C@H]2CN1C(=O)c1ccccc1
Result value: 0.777
//
Compound: C=C(/C(=C/C[C@@H](OC(=O)c1ccncc1)c1ccc(OCCO)cc1)c1cc(C(=O)OC)ccc1OC)C(C)C
Result value: 1.48

For each entry beneath this line, provide reported composite z-score.
1. CC(C)(C)OC(=O)CC[C@]1(C(=O)N2CCOCC2)N=C(c2ccc(OCCCO)cc2)O[C@H]1c1ccccc1
2. COC(=O)C1(Cc2ccccc2)C=C2C(=C(C(C)C)C(=O)C2C)CN1 (stereo not drawn)
3. CN1C(=O)C2C=CC(C(O)c3c(F)cccc3Cl)N(Nc3ccccc3)C2C1=O (stereo not drawn)

1. 0.587
2. -1.15
3. 1.04

----------
Assay notes: small-molecule microarray binders of probe aDKK1, primary screen, biochemical, biotinylated probe, 635/667 nm fluorescence (AID 1099);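 also: score merges 667nm spot fluorescence with signal to noise across triplicate slides; reference of the scale not given here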
Assay context: higher = more signal
Attribute measured: composite z-score
Give bare numbers.

For orientation, consider the following solved cases.
Compound: CON(C)C(=O)C=C1C[C@@H](c2cccc(Cl)c2)O[C@@H](c2cccc(Cl)c2)O1
composite z-score: 0.0204
--
Compound: COCCCNC(=O)[C@]1(Cc2ccccc2N=[N+]=[N-])N=C(c2ccc(OCCCO)cc2)O[C@@H]1c1ccccc1N=[N+]=[N-]
composite z-score: 0.609
--
Compound: COCCOC(=O)N1C(=O)[C@@]2(c3cc(C#CC4=CCCCC4)ccc31)[C@H](c1ccccc1OCCO)N1[C@H](c3ccccc3)[C@H](c3ccccc3)OC(=O)[C@H]1[C@@H]2C(=O)N1CCc2cc(OC)c(OC)cc2C1
composite z-score: -0.636
--
Compound: COc1ccccc1CN1C(=O)c2ccccc2[C@@H](C(=O)NC(C)C)[C@@H]1c1ccc(CO)cc1
composite z-score: 0.711

For each entry beneath this line, provide reported composite z-score.
1. CC(C)C(O)C1C=CC2C(=O)N(C)C(=O)C2N1Nc1ccccc1 (configuration not stated)
2. C=C(COC)/C(=C/C[C@@H](OC(=O)c1ccncc1)c1ccc(CO)o1)c1cnc2ccccc2c1
3. COCCOC(=O)N1C(=O)[C@@]2(c3cc(C#CC4(O)CCCCCC4)ccc31)[C@H](C(N)=O)[C@H]1C(=O)O[C@H](c3ccccc3)[C@H](c3ccccc3)N1[C@@H]2c1ccc(O)cc1

1.36
-0.182
-0.116

----------
Assay notes: binders from COS7 lysate, DM2A8 probe, primary screen, torsin A project, cell lysate, small-molecule microarray, fluorescence 635/667 (AID 1065)
Assay context: higher = more signal, COS7 lysate expressing mutant human TOR1A
Attribute measured: composite z-score
One number for each entry.

For each entry beneath this line, provide reported composite z-score.
1. CC=CC(O)C1C=CC2C(=O)N(C)C(=O)C2N1Nc1ccc([N+](=O)[O-])cc1[N+](=O)[O-] (configuration not stated)
2. O=c1cccc(-c2cccc(Cl)c2)o1
3. Cc1ccc(S[C@]2(C(=O)NCc3ccccc3)CC(=O)N(C(C)C)[C@@H]2c2ccc(CO)cc2I)cc1
4. O=C1O[C@@H](c2ccccc2)[C@@H](c2ccccc2)N2[C@@H](c3ccccc3OCCO)[C@]3(C(=O)Nc4ccc(C#CC5=CCCCC5)cc43)[C@@H](C(=O)NC[C@H](O)c3ccccc3)[C@H]12
5. COCC(=C=CC[C@H](O)c1cccc(OCCO)c1)C[C@H](O)c1ccccn1
6. COc1ccc([Si](C)(C)[C@H]2[C@H](CCn3cc([C@H](O)c4ccccc4)nn3)O[C@@]3(C(=O)N(Cc4cccc(N5C(=O)c6cccc7cccc5c67)c4)c4ccccc43)[C@@H]2C)cc1
7. C=C(/C(=C/C[C@@H](OC(=O)c1ccncc1)c1ccccc1OCCO)c1cc(C(=O)OC)ccc1OC)C(C)C

1. -0.183
2. -0.341
3. -0.464
4. 2.06
5. -0.3
6. -0.17
7. 0.584
